- Assayed target: CDK6/Cyclin D1 (Homo sapiens)
- Construct: purchased Thermo Fisher Scientific
- Sequence (Q00534 whole entry): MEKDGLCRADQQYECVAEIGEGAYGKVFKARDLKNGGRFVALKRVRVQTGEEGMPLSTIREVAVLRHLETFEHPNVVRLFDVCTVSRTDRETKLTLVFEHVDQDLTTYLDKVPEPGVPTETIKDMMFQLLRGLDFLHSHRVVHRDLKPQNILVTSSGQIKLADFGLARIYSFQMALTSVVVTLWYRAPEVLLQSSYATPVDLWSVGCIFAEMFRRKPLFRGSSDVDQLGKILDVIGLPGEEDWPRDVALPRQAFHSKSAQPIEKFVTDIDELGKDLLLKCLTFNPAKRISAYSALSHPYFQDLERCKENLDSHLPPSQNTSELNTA
- Sequence (P24385 whole entry partner): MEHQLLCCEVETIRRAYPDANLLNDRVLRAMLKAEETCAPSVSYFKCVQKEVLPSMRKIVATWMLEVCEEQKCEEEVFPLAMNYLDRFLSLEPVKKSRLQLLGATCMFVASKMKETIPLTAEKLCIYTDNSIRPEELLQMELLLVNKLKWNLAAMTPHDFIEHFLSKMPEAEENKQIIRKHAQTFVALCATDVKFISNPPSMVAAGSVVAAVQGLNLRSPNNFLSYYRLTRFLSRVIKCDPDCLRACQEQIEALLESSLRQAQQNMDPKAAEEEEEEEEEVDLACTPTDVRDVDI
- Method summary: Adapta screening assay (Thermo Fisher)
- Format: biochemical
- Test parameters: single point at 1 μM; read-out: CDK6 % Inh.
Rule: inhibition at 1 µM under 80% gives No, otherwise Yes.

See these solved cases before continuing.
{"Compound": "CC(C)N1CCN(c2ccc(Nc3ncc4c(n3)N(C3CCCC3)C(=O)C4)cc2)CC1 [Compound 7]", "Classification": "No"}
{"Compound": "Cc1cc(=O)n(C2CCCC2)c2nc(Nc3ccc(N4CCN(C)CC4)cc3)ncc12 [Compound 4]", "Classification": "Yes"}
{"Compound": "CN1C2CC1CN(c1ccc(Nc3ncc4ccn(CC5CCOCC5)c4n3)cc1)C2 [Compound 24]", "Classification": "No"}
{"Compound": "CN1C2CC1CN(c1ccc(Nc3ncc4cc(C#N)c(=O)n(C5CCCC5)c4n3)cc1)C2 [Compound 10]", "Classification": "Yes"}
{"Compound": "Cc1cc(=O)n(C(C)C)c2nc(Nc3ccc(N4CC5CC(C4)N5C)cc3)ncc12 [Compound 20]", "Classification": "No"}

Now for a further compound.
Q: Test whether the compound Cc1cc(=O)n(C2CCCC2)c2nc(Nc3ccc(N4CC5CC(C4)N5C)cc3)ncc12 [Compound 9] records inhibition at 1 µM of 80% or higher.
A: No
